Reference source: the supplement of paper PMC10307832

- Test system: NCI-H2009
- experimental-protocol: relative viability (nuclei count vs DMSO), 5 days (fraction); higher = more cells survive
- assay-setup: first compound 0.8 µM
endpoint: relative viability
Answer field: number only, no words.

Answered cases to consult:
CCCCCCCCCCCC1=C(O)C(=O)C=C(O)C1=O [Embelin] + CC(C)C[C@H](NC(=O)[C@H](Cc1ccccc1)NC(=O)c1cnccn1)B(O)O [Bortezomib] (partner 0.002 µM); 1.18
CCCCCCCCCCCC1=C(O)C(=O)C=C(O)C1=O [Embelin] + C[C@@H](Oc1cc(-c2cnn(C3CCNCC3)c2)cnc1N)c1c(Cl)ccc(F)c1Cl [Crizotinib] (partner 1 µM); 1.12
CCCCCCCCCCCC1=C(O)C(=O)C=C(O)C1=O [Embelin] + Cc1nc(NC(=O)N2CCC[C@H]2C(N)=O)sc1-c1ccnc(C(C)(C)C(F)(F)F)c1 [Alpelisib] (partner 2 µM); 1.27
CCCCCCCCCCCC1=C(O)C(=O)C=C(O)C1=O [Embelin] + Cc1nc(Nc2ncc(C(=O)Nc3c(C)cccc3Cl)s2)cc(N2CCN(CCO)CC2)n1 [Dasatinib] (partner 0.075 µM); 0.487
CCCCCCCCCCCC1=C(O)C(=O)C=C(O)C1=O [Embelin] + CC(=O)c1c(C)c2cnc(Nc3ccc(N4CCNCC4)cn3)nc2n(C2CCCC2)c1=O [Palbociclib] (partner 0.5 µM); 0.277
CCCCCCCCCCCC1=C(O)C(=O)C=C(O)C1=O [Embelin] + CS(=O)(=O)CCNCc1ccc(-c2ccc3ncnc(Nc4ccc(OCc5cccc(F)c5)c(Cl)c4)c3c2)o1 [Lapatinib] (partner 2 µM); 1.09

Let us move to another entry and its relative viability.
Note to self: relative viability recorded for CCCCCCCCCCCC1=C(O)C(=O)C=C(O)C1=O [Embelin] + CCNC(=O)c1noc(-c2cc(C(C)C)c(O)cc2O)c1-c1ccc(CN2CCOCC2)cc1 [Luminespib] (partner 0.01 µM) was 1.07
